Data credit: patent US20140155445A1

Recorded IC50 for the following compounds
Assay System: HO-1 (rat spleen) (Rattus norvegicus, UniProt P06762)
Construct: Spleen microsomes were used as a source of HO-1; from tissue; host or cells: spleen microsomal fraction of adult male Sprague-Dawley rats
Sequence (P06762 whole entry): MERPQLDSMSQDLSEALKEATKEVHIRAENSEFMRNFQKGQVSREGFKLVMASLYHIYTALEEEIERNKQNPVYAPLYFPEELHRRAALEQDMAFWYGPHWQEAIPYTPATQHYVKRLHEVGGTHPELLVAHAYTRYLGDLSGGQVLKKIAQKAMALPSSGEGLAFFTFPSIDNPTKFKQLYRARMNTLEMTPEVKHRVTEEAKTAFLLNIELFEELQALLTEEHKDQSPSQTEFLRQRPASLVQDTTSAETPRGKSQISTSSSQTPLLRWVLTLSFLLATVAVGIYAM
Assay: HO enzymatic activity in rat spleen microsomal fraction (CO formed from methemalbumin, gas chromatography)
Assay type: biochemical
Condition: rat spleen microsomes; average ± standard deviation of replicate experiments; read-out: IC50 HO-1 (rat spleen)/μM
Counter-ions that a name gives are not always drawn.
Your answer should be a plain number; it is taken to be in µM.

QUERY: Using the record for OC(CCc1ccccc1)Cn1ccnn1 (racemic) [hydrochloride] , state its measured IC50.
RESULT: 44

QUERY: Identify the reported IC50 for the following entry. Clc1ccc(CC[C@@]2(Cn3ccnc3)OC[C@@H](CSc3ccccc3Br)O2)cc1 [hydrochloride]
RESULT: 6

QUERY: Check the records and state IC50 for O=C(Cn1ccnc1)c1ccc2c(c1)CCCC2 [hydrochloride]
RESULT: 4

QUERY: Provide IC50 value for the following compound: O=C(CCc1ccc(Br)cc1)Cn1cncn1 [hydrochloride]
RESULT: 0.39

QUERY: Tell me measured IC50 for Clc1ccc(CC[C@@]2(Cn3ccnc3)OC[C@@H](CSc3ccc(Br)cc3)O2)cc1 [hydrochloride] please.
RESULT: 2.1

Please turn your attention to the following entry.
QUERY: State, in one line, measured IC50 of Nc1ccccc1SC[C@@H]1CO[C@](CCc2ccc(Cl)cc2)(Cn2ccnc2)O1 [dihydrochloride]
RESULT: 5
